# system under test: T1, human Nectin-4 on cells (human, UniProt Q96NY8 32-510)
# T1 construct: whole, on cells; also called HEK293 cells expressing human Nectin-4; T47D cells that express human Nectin-4
# T1 sequence (looked up): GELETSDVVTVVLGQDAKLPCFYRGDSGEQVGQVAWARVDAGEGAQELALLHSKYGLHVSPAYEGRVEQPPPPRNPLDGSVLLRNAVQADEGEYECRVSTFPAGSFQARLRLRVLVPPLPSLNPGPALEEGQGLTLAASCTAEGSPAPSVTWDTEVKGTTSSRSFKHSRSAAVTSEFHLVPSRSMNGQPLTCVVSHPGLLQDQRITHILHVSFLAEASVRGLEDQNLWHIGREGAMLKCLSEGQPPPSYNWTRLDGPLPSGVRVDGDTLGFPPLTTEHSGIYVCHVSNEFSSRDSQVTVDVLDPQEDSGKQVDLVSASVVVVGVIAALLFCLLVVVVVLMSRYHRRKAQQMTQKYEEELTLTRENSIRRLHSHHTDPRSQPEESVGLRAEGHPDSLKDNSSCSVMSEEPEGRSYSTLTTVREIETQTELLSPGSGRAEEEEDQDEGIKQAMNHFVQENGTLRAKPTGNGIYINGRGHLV
# procedure summary: FACS, HEK293 cells expressing human Nectin-4
# Experimental: FACS analysis was carried out using HEK293 cells expressing human Nectin-4.
This listing pairs binders with measured Ratio (pH 7.4/6.0) of EC50.

binder	Ratio (pH 7.4/6.0) of EC50
BAP-143-00-01 (antibody, V domains shown, Used as a conjugate with a linker payload (CAB ADC)) VH: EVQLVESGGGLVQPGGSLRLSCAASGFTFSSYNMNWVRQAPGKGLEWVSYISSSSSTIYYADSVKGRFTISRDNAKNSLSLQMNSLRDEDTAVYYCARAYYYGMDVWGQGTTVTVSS VL: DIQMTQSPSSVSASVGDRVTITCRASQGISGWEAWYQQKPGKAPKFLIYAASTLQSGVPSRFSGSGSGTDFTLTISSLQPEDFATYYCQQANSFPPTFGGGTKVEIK	2.2
BAP-143-06-33-16 (antibody, V domains shown, Used as a conjugate with a linker payload (CAB ADC)) VH: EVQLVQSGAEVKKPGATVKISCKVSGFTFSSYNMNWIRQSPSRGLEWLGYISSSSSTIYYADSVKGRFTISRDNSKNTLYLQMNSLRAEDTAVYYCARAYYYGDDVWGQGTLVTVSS VL: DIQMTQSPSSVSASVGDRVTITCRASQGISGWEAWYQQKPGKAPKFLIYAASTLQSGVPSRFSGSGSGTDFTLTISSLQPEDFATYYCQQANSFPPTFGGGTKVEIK	1.5
BAP-143-06-24-16 (antibody, V domains shown, Used as a conjugate with a linker payload (CAB ADC)) VH: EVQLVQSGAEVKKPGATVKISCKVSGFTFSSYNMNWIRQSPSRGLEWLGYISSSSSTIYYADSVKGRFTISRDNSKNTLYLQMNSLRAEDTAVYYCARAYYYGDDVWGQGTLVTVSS VL: DIQMTQSPSSVSASVGDRVTITCHASQGISGWLAWYQQKPGKAPKFLIYAASTLQSGVPSRFSGSGSGTDFTLTISSLQPEDFATYYCQQANSFPPTFGGGTKVEIK	1.4
